human MASP1 IC50: recorded values
Target: T1, recombinant human MASP1 active protease (amino acids 297-699, C-terminal His Tag) (human, UniProt P48740 297-699)
T1 sequence: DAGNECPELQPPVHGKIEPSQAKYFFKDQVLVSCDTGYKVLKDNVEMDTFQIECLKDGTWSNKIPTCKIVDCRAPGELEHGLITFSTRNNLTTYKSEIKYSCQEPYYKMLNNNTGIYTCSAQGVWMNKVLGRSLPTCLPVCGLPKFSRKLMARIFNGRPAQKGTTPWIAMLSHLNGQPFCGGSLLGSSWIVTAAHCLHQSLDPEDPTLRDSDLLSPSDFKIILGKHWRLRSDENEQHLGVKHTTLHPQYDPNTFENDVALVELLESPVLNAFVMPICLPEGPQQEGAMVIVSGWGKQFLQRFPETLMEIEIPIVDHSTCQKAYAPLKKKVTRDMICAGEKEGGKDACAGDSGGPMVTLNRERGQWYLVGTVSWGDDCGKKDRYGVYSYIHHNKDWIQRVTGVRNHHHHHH
Experiment: cell-based or functional assay
Bridge positions count the residues as written; N and C are the ends. Square brackets hold non-standard residues; d marks the D form. Ends that are not written are not given here. Oic = O=C(O)[C@@H]1C[C@@H]2CCCC[C@@H]2N1; tBuAla = CC(C)(C)C[C@H](N)C(=O)O; Cba = N[C@@H](CC1CCC1)C(=O)O; Pen = CC(C)(S)[C@H](N)C(=O)O; NMeA = CN[C@@H](C)C(=O)O; PEG2 = NCCOCCOCCC(=O)O; Sar = CNCC(=O)O
Measurement name: human MASP1 IC50 (nM)

binder="A[Cba]CSRS[tBuAla]PPI[Pen]IPD-NH2 (disulfide 3-11; N-terminus assumed; SMILES CC[C@H](C)[C@@H]1NC(=O)[C@@H]2CCCN2C(=O)[C@@H]2CCCN2C(=O)[C@H](CC(C)(C)C)NC(=O)[C@H](CO)NC(=O)[C@H](CCCNC(=N)N)NC(=O)[C@H](CO)NC(=O)[C@@H](NC(=O)[C@H](CC2CCC2)NC(=O)[C@H](C)N)CSSC(C)(C)[C@@H](C(=O)N[C@H](C(=O)N2CCC[C@H]2C(=O)N[C@@H](CC(=O)O)C(N)=O)[C@@H](C)CC)NC1=O) [A-(Cba)-C+SRS-((tBu)A)-PPI-(Pen)+IPD-NH2]" measurement_name="human MASP1 IC50" endpoint_result=2
binder="[NMeA]ICSRSLP[Oic]I[Pen]IP-NH2 (disulfide 3-11; N-terminus assumed; SMILES CC[C@H](C)[C@H](NC(=O)[C@H](C)NC)C(=O)N[C@H]1CSSC(C)(C)[C@@H](C(=O)N[C@H](C(=O)N2CCC[C@H]2C(N)=O)[C@@H](C)CC)NC(=O)[C@H]([C@@H](C)CC)NC(=O)[C@@H]2C[C@@H]3CCCC[C@@H]3N2C(=O)[C@@H]2CCCN2C(=O)[C@H](CC(C)C)NC(=O)[C@H](CO)NC(=O)[C@H](CCCNC(=N)N)NC(=O)[C@H](CO)NC1=O) [((N-Me)A)-IC+SRSLP-(Oic)-I-(Pen)+IP-NH2]" measurement_name="human MASP1 IC50" endpoint_result=3.4
binder="[Sar]ICSRS[tBuAla]PPI[Pen]IP[PEG2]-NH2 (disulfide 3-11; also: HCl salt) [((N-Me)G)-IC+SRS-((tBu)A)-PPI-(Pen)+IP-(PEG1(10 atoms))-NH2 (HCl salt)]" measurement_name="human MASP1 IC50" endpoint_result=1.7
binder="[(1R,3S,4S)‑2‑azabicyclo(2.2.1)heptane‑3‑carboxylic acid]ICSRS[tBuAla]PPI[Pen]IP-NH2 (disulfide 3-11) [((1R,3S,4S)-2-azabicyclo[2.2.1]heptane-3-carboxylic acid)-IC+SRS-((tBu)A)-PPI-(Pen)+IP-NH2]" measurement_name="human MASP1 IC50" endpoint_result=1.6

All figures here come from patent US20210246166A1.
